- PROTOCOL DETAILS: Cmax in Sprague-Dawley rat at 30 mg/kg, po
- Type: ADME, organism-based
- Set-up: dose 30 mg/kg, route oral
- MEASUREMENT CONTEXT: in vivo

COMPOUND	Cmax / ng/mL
CC(=O)Nc1nc(C)c(-c2nc(CC(C)(C)C(C)O)no2)s1 (centres undefined)	7800
CC(=O)Nc1nc(C)c(-c2nc(CC(F)(F)F)no2)s1	345
CC(=O)Nc1nc(C)c(-c2nc(CC(C)(C)CO)no2)s1	38
CC(=O)Nc1nc(C)c(-c2nc(N3CCCC(O)C3)no2)s1 (centres undefined)	3920

* * *

- Test system: Salmonella typhimurium
- PROTOCOL DETAILS: Mutagenicity in Salmonella typhimurium TA100 up to 2000 ug/ml by Ames fluctuation test
- Format: toxicity, organism-based
- MEASUREMENT CONTEXT: salmonella enterica subsp. enterica serovar typhimurium

COMPOUND	STUDY TARGET	Activity
Cc1nc(N)sc1-c1nc(N2CCCC(O)C2)no1 (centres undefined)	Salmonella typhimurium	Non-toxic
CC(=O)Nc1nc(C)c(-c2nc(N3CCCC(O)C3)no2)s1 (centres undefined)	Salmonella typhimurium	Non-toxic
Cc1nc(N)sc1-c1nc(C(C)(C)C)no1	Salmonella typhimurium	Non-toxic
Cc1nc(N)sc1-c1cnc(C(C)(C)C)o1	Salmonella typhimurium	Toxic

* * *

- PROTOCOL DETAILS: Metabolic stability in rat liver microsomes assessed as compound remaining at 5 uM after 15 mins by LC-MS/MS analysis
- Assay type: ADME
- MEASUREMENT CONTEXT: read-out: Stability

COMPOUND	UNIT INFO	remaining at 0.25 h, 5 µM
CC(=O)Nc1nc(C)c(-c2nc(N3CCCC(O)C3)no2)s1 (centres undefined)	%	97.1
CC(=O)Nc1nc(C)c(-c2nc(CC(C)(C)CO)no2)s1	%	94
CC(=O)Nc1nc(C)c(-c2nc(CC(C)(C)C(C)O)no2)s1 (centres undefined)	%	91.5
CC(=O)Nc1nc(C)c(-c2nc(CC(F)(F)F)no2)s1	%	72.9

* * *

Measured remaining at 1 h, 5 µM, listed per entry.
- PROTOCOL DETAILS: Metabolic stability in human hepatocytes assessed as compound remaining at 5 uM after 1 hr by LC-MS/MS analysis
- Assay type: ADME, cell-based, Hepatocyte
- MEASUREMENT CONTEXT: read-out: Stability

COMPOUND	remaining at 1 h, 5 µM [%]
CC(=O)Nc1nc(C)c(-c2nc(CC(C)(C)CO)no2)s1	9.3
CC(=O)Nc1nc(C)c(-c2nc(N3CCCC(O)C3)no2)s1 (stereo not drawn)	75.7
CC(=O)Nc1nc(C)c(-c2nc(CC(C)(C)C(C)O)no2)s1 (stereo not drawn)	35.2

* * *

- System: Salmonella typhimurium
- PROTOCOL DETAILS: Mutagenicity in Salmonella typhimurium TA100 up to 5000 ug/ml by Ames test in absence of rat S9 fraction
- Format: toxicity, organism-based
- MEASUREMENT CONTEXT: salmonella enterica subsp. enterica serovar typhimurium
MEASUREMENT KIND: Activity

COMPOUND	VALUE
CC(=O)Nc1nc(C)c(-c2cnc(C(C)(C)C)o2)s1	Non-toxic
Cc1nc(N)sc1-c1cnc(C(C)(C)C)o1	Toxic
Cc1nc(N)sc1-c1nc(C(C)(C)C)no1	Non-toxic
Cc1nc(N)sc1-c1nc(N2CCCC(O)C2)no1 (stereo not given)	Non-toxic
CC(=O)Nc1nc(C)c(-c2nc(N3CCCC(O)C3)no2)s1 (stereo not given)	Non-toxic

* * *

- Test system: Escherichia coli
- PROTOCOL DETAILS: Mutagenicity in Escherichia coli WP2uvrA up to 5000 ug/ml by Ames test in presence of rat S9 fraction
- Format: toxicity, organism-based

MOLECULE	STUDY TARGET	Activity
Cc1nc(N)sc1-c1nc(N2CCCC(O)C2)no1 (stereo not given)	Escherichia coli	Non-toxic
Cc1nc(N)sc1-c1cnc(C(C)(C)C)o1	Escherichia coli	Toxic
Cc1nc(N)sc1-c1nc(C(C)(C)C)no1	Escherichia coli	Non-toxic
CC(=O)Nc1nc(C)c(-c2cnc(C(C)(C)C)o2)s1	Escherichia coli	Non-toxic
CC(=O)Nc1nc(C)c(-c2nc(N3CCCC(O)C3)no2)s1 (stereo not given)	Escherichia coli	Non-toxic

* * *

- Test system: Escherichia coli
- PROTOCOL DETAILS: Mutagenicity in Escherichia coli WP2uvrA up to 5000 ug/ml by Ames test in absence of rat S9 fraction
- Format: toxicity, organism-based

MOLECULE	Activity
Cc1nc(N)sc1-c1nc(C(C)(C)C)no1	Non-toxic
Cc1nc(N)sc1-c1cnc(C(C)(C)C)o1	Toxic
CC(=O)Nc1nc(C)c(-c2cnc(C(C)(C)C)o2)s1	Non-toxic
Cc1nc(N)sc1-c1nc(N2CCCC(O)C2)no1 (stereo not given)	Non-toxic
CC(=O)Nc1nc(C)c(-c2nc(N3CCCC(O)C3)no2)s1 (stereo not given)	Non-toxic

* * *

- STUDY TARGET: Phosphatidylinositol 4,5-bisphosphate 3-kinase catalytic subunit gamma isoform (Homo sapiens, UniProt P48736)
- Sequence (P48736 whole entry, canonical isoform): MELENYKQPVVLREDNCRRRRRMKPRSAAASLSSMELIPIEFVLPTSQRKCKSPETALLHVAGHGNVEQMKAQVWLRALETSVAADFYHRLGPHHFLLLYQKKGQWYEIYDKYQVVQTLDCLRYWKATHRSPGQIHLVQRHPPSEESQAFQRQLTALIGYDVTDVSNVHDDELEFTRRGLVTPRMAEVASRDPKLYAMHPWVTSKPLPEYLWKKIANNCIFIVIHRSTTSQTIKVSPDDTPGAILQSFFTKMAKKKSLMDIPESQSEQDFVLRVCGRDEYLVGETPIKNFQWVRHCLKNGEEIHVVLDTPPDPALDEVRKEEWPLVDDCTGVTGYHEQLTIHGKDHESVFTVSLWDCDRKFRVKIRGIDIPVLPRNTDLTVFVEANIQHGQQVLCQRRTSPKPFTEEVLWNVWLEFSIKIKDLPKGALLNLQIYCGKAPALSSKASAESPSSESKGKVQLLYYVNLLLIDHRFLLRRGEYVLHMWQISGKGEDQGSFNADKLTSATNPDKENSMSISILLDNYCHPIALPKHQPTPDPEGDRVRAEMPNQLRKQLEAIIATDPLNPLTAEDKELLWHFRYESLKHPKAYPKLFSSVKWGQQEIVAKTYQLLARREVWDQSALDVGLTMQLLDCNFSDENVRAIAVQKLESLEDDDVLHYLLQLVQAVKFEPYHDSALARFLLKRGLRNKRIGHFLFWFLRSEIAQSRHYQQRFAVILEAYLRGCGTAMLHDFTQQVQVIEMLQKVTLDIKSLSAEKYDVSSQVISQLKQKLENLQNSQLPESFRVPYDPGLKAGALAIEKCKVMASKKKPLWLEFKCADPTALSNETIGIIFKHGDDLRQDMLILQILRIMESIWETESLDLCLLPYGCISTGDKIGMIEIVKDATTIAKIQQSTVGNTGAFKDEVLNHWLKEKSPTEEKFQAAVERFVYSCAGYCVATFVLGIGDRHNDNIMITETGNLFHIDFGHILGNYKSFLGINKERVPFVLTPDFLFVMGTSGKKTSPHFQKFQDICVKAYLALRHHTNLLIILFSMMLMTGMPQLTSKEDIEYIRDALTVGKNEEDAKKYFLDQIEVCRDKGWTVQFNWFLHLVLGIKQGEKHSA
- PROTOCOL DETAILS: Inhibition of human PI3Kgamma using PtdIns/PtdSer as substrate after 2 hrs by scintillation counting analysis in presence of gamma[33P]ATP
pIC50: −log10 of the molar value.
Measured pIC50 accompanies every entry in the list below.

STRUCTURE STRING	pIC50
CC(=O)Nc1nc(C)c(-c2nc(N3CCOCC3)no2)s1	7.00
COCC(C)(C)Cc1noc(-c2sc(NC(C)=O)nc2C)n1	7.17
CC(=O)Nc1nc(C)c(-c2nc(CC(C)(C)O)no2)s1	7.17
Cc1nc(N)sc1-c1nc(C(C)(C)C)no1	7.17
CC(=O)Nc1nc(C)c(-c2nc(C(C)(C)C)no2)s1	7.85
CC(=O)Nc1nc(C)c(-c2nc(CC(F)(F)F)no2)s1	7.55

* * *

- STUDY TARGET: Phosphatidylinositol 4,5-bisphosphate 3-kinase catalytic subunit gamma isoform (Mus musculus, UniProt Q9JHG7)
- Sequence (Q9JHG7 whole entry, canonical isoform): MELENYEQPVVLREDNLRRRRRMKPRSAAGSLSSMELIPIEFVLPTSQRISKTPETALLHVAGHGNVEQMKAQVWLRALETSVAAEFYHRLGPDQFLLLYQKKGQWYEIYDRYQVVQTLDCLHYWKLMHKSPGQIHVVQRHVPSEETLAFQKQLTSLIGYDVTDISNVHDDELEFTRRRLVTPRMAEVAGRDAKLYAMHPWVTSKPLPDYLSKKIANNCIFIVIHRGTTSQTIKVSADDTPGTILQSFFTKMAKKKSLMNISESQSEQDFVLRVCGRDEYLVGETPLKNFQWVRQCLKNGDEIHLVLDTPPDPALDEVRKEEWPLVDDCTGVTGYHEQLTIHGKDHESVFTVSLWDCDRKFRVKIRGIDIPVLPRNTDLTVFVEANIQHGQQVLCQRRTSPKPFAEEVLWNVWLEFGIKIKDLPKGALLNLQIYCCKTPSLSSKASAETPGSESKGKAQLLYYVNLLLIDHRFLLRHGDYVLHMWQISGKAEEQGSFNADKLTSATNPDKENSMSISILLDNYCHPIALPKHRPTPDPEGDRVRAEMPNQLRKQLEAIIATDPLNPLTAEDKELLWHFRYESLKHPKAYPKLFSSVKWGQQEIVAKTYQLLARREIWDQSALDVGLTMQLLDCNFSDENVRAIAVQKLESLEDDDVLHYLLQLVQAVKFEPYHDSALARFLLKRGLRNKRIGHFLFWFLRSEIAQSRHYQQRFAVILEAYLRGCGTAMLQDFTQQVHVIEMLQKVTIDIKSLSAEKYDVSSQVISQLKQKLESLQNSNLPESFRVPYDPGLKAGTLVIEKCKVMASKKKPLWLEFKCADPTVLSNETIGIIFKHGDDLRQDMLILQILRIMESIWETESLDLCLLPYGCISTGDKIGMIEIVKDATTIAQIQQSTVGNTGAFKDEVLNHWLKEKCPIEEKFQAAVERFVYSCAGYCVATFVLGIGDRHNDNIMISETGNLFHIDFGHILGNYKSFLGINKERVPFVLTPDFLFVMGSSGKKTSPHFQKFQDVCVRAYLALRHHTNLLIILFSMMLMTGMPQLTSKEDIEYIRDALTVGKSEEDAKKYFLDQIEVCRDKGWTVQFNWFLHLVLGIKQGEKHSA
- PROTOCOL DETAILS: Inhibition of PI3Kgamma in mouse RAW264.7 cells assessed as C5a-mediated PKB/Akt phosphorylation preincubated for 30 mins followed by C5a stimulation measured after 5 mins
# note: exactly 300 nM is not below, so it is False; use True for IC50 strictly under it

MOLECULE	QUALITATIVE LABEL
CC(=O)Nc1nc(C)c(-c2nc(CC(C)(C)C(C)O)no2)s1 (stereo unspecified)	True
CC(=O)Nc1nc(C)c(-c2nc(C3CCOC3)no2)s1 (stereo unspecified)	False
CC(=O)Nc1nc(C)c(-c2nc(CC(F)(F)F)no2)s1	True
CC(=O)Nc1nc(C)c(-c2nc(C(C)(C)C)no2)s1	True
CC(=O)Nc1nc(C)c(-c2nc(CC(C)(C)CO)no2)s1	True

* * *

- Test system: Salmonella typhimurium
- PROTOCOL DETAILS: Mutagenicity in Salmonella typhimurium TA98 up to 2000 ug/ml by Ames fluctuation test
- Type: toxicity, organism-based
- MEASUREMENT CONTEXT: salmonella enterica subsp. enterica serovar typhimurium
MEASUREMENT KIND: Activity

MOLECULE	MEASUREMENT KIND	VALUE
Cc1nc(N)sc1-c1nc(C(C)(C)C)no1	Activity	Non-toxic
Cc1nc(N)sc1-c1nc(N2CCCC(O)C2)no1 (centres undefined)	Activity	Non-toxic
Cc1nc(N)sc1-c1cnc(C(C)(C)C)o1	Activity	Toxic
CC(=O)Nc1nc(C)c(-c2nc(N3CCCC(O)C3)no2)s1 (centres undefined)	Activity	Non-toxic

* * *

- STUDY TARGET: Phosphatidylinositol 4,5-bisphosphate 3-kinase catalytic subunit gamma isoform (Homo sapiens, UniProt P48736)
- PROTOCOL DETAILS: Inhibition of human PI3Kgamma using PtdIns/PtdSer as substrate after 2 hrs by scintillation counting analysis in presence of gamma[33P]ATP
MEASUREMENT KIND: IC50 (nM)

COMPOUND	MEASUREMENT KIND	VALUE
CC(=O)Nc1nc(C)c(-c2nc(CCC(C)(C)O)no2)s1	IC50	203
CC(=O)Nc1nc(C)c(-c2nc(C3CCOC3)no2)s1 (centres undefined)	IC50	57
CC(=O)Nc1nc(C)c(-c2nc(C(C)(C)CCO)no2)s1	IC50	62
CC(=O)Nc1nc(C)c(-c2nc(CC(C)(C)C(C)O)no2)s1 (centres undefined)	IC50	17

* * *

- PROTOCOL DETAILS: AUC (0 to 8 hrs) in Sprague-Dawley rat at 30 mg/kg, po
- Format: ADME, organism-based
- Set-up: time < 8 hr, dose 30 mg/kg, route oral
- MEASUREMENT CONTEXT: plasma

COMPOUND	AUC(0-t) at 8 h / ng·h/mL
CC(=O)Nc1nc(C)c(-c2nc(CC(F)(F)F)no2)s1	1180
CC(=O)Nc1nc(C)c(-c2nc(N3CCCC(O)C3)no2)s1 (centres undefined)	10800
CC(=O)Nc1nc(C)c(-c2nc(CC(C)(C)CO)no2)s1	92
CC(=O)Nc1nc(C)c(-c2nc(CC(C)(C)C(C)O)no2)s1 (centres undefined)	10900
